// provenance: patent US20230346670A1

fold change in adpc expression, geometric mean (95% C.I.) values, listed per item
# Test system: P. intermedia virulence genes
# testName: Virulence gene expression in multi-species biofilm (SYBR RT-qPCR)
# Type: cell-based
# conditions: lower part of Table 6d, head prints 1 M (lower part 1%(w/v)); relative to control = 1
assayMetric: fold change in adpc expression, geometric mean (95% C.I.)

compound | resultValue
OC[C@H]1O[C@H](OC[C@H]2O[C@H](O[C@]3(CO)O[C@H](CO)[C@@H](O)[C@@H]3O)[C@H](O)[C@@H](O)[C@@H]2O)[C@H](O)[C@@H](O)[C@H]1O [D-raffinose, D-(+)-raffinose] | 0.85 (0.23-3.13) fold
OC[C@H]1O[C@H](O[C@H]2O[C@H](CO)[C@@H](O)[C@H](O)[C@H]2O)[C@H](O)[C@@H](O)[C@@H]1O [D-trehalose, D-(+)-trehalose] | 0.64 (0.29-1.4) fold
OC[C@H]1O[C@@H](O[C@H]2[C@H](O)[C@@H](O)[C@@H](O)O[C@@H]2CO)[C@H](O)[C@@H](O)[C@H]1O | 0.41 (0.30-0.55) fold
CC(=O)N[C@H]1C(O)O[C@H](CO)[C@@H](O)[C@@H]1O (stereo partly shown) | 0.67 (0.64-0.69) fold
